Source: paper PMC5503262

tested.on: Zika NS2B-NS3pro (unlinked complex) (Zika virus)
Construct: DNA fragments encoding the isolated NS3 (14–185) and NS2B (48–100) with the transmembrane regions removed; His-tag (cleaved yes); made in house; host or cells: Escherichia coli BL21 (DE3) Star
protocol: Inhibition of unlinked Zika NS2B-NS3pro, fluorogenic substrate Bz-nKRR-AMC
Format: biochemical
condition.set: non-competitive fit, protease 50 nM preincubated 30 min at 37°C, 50 mM Tris-HCl pH 8.5 + 20% glycerol; mean ± SD, triplicate; read-out: Ki
property.name: Ki (µM)

[[record]]
smiles_input = "O=c1c(O)c(-c2cc(O)c(O)c(O)c2)oc2cc(O)cc(O)c12"
property_name = "Ki"
recorded_value = 0.8

[[record]]
smiles_input = "O=c1cc(-c2ccc(O)c(O)c2)oc2cc(O)cc(O)c12"
property_name = "Ki"
recorded_value = 1.4


###

tested.on: Zika NS2B-NS3pro (unlinked complex) (Zika virus, UniProt A0A024B7W1)
Construct: DNA fragments encoding the isolated NS3 (14–185) and NS2B (48–100) with the transmembrane regions removed; His-tag (cleaved yes); made in house; host or cells: Escherichia coli BL21 (DE3) Star
Sequence (A0A024B7W1 1420-1472): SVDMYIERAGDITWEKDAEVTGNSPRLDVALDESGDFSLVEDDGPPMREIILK
Sequence (A0A024B7W1 1516-1687): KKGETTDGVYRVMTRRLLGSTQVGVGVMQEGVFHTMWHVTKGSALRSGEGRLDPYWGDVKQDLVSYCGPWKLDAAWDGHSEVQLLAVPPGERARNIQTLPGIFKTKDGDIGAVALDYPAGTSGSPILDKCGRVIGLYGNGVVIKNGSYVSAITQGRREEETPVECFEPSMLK
protocol: Inhibition of unlinked Zika NS2B-NS3pro, fluorogenic substrate Bz-nKRR-AMC
Type: biochemical
condition.set: initial screening, compound 500 μM, protease 50 nM, Bz-nKRR-AMC 250 μM, 50 mM Tris-HCl pH 8.5 + 20% glycerol
property.name: Inhibition at 500 μM

[[record]]
smiles_input = "O=c1c(O)c(-c2ccc(O)c(O)c2)oc2cc(O)cc(O)c12"
property_name = "Inhibition at 500 μM"
recorded_value = "Yes"

[[record]]
smiles_input = "Oc1ccc(/C=C/c2cc(O)cc(O)c2)cc1"
property_name = "Inhibition at 500 μM"
recorded_value = "No"

[[record]]
smiles_input = "O=c1c(-c2ccc(O)cc2)coc2cc(O)ccc12"
property_name = "Inhibition at 500 μM"
recorded_value = "No"

[[record]]
smiles_input = "O=c1cc(-c2ccc(O)c(O)c2)oc2cc(O)cc(O)c12"
property_name = "Inhibition at 500 μM"
recorded_value = "Yes"

[[record]]
smiles_input = "COc1cc(/C=C/C(=O)CC(=O)/C=C/c2ccc(O)c(OC)c2)ccc1O"
property_name = "Inhibition at 500 μM"
recorded_value = "Yes"

[[record]]
smiles_input = "O=c1c(O)c(-c2cc(O)c(O)c(O)c2)oc2cc(O)cc(O)c12"
property_name = "Inhibition at 500 μM"
recorded_value = "Yes"

[[record]]
smiles_input = "COc1cc(-c2oc3cc(O)cc(O)c3c(=O)c2O)ccc1O"
property_name = "Inhibition at 500 μM"
recorded_value = "Yes"

[[record]]
smiles_input = "Oc1cc(O)c2c(c1)O[C@H](c1ccc(O)c(O)c1)[C@@H](O)C2"
property_name = "Inhibition at 500 μM"
recorded_value = "No"

[[record]]
smiles_input = "O=c1cc(-c2ccc(O)cc2)oc2cc(O)cc(O)c12"
property_name = "Inhibition at 500 μM"
recorded_value = "Yes"


###

tested.on: Zika NS2B-NS3pro (unlinked complex) (Zika virus)
Construct: DNA fragments encoding the isolated NS3 (14–185) and NS2B (48–100) with the transmembrane regions removed; His-tag (cleaved yes); made in house; host or cells: Escherichia coli BL21 (DE3) Star
protocol: Inhibition of unlinked Zika NS2B-NS3pro, fluorogenic substrate Bz-nKRR-AMC
Format: biochemical
condition.set: Ki, non-competitive mode, unlinked enzyme, pH 8.5
pKi: −log10 of the molar value.
property.name: pKi

[[record]]
smiles_input = "O=c1c(O)c(-c2cc(O)c(O)c(O)c2)oc2cc(O)cc(O)c12"
recorded_value = 6.11


###

tested.on: Zika NS2B-NS3pro (unlinked complex) (Zika virus)
Construct: DNA fragments encoding the isolated NS3 (14–185) and NS2B (48–100) with the transmembrane regions removed; His-tag (cleaved yes); made in house; host or cells: Escherichia coli BL21 (DE3) Star
protocol: Inhibition of unlinked Zika NS2B-NS3pro, fluorogenic substrate Bz-nKRR-AMC
Assay type: biochemical
condition.set: protease 50 nM preincubated 30 min at 37°C, Bz-nKRR-AMC 250 μM, 50 mM Tris-HCl pH 8.5 + 20% glycerol; mean ± SD, triplicate; read-out: IC50
The reader will find reported IC50 values listed item by item below.
property.name: IC50

[[record]]
smiles_input = "O=c1c(O)c(-c2cc(O)c(O)c(O)c2)oc2cc(O)cc(O)c12"
recorded_value = "1300 nM"

[[record]]
smiles_input = "O=c1cc(-c2ccc(O)cc2)oc2cc(O)cc(O)c12"
recorded_value = "56300 nM"

[[record]]
smiles_input = "O=c1cc(-c2ccc(O)c(O)c2)oc2cc(O)cc(O)c12"
recorded_value = "2700 nM"


###

tested.on: Zika NS2B-NS3pro (unlinked complex) (Zika virus, UniProt A0A024B7W1)
Construct: DNA fragments encoding the isolated NS3 (14–185) and NS2B (48–100) with the transmembrane regions removed; His-tag (cleaved yes); made in house; host or cells: Escherichia coli BL21 (DE3) Star
protocol: Inhibition of unlinked Zika NS2B-NS3pro, fluorogenic substrate Bz-nKRR-AMC
Format: biochemical
condition.set: Ki, non-competitive fit, protease 50 nM preincubated 30 min at 37°C, 50 mM Tris-HCl pH 8.5 + 20% glycerol; mean ± SD, triplicate
From the text: Due to the urgency to fight ZIKV infection, we attempted to screen the inhibitors of Zika NS2B-NS3pro from natural products rich in edible plants. To better reflect the situation in vivo, here we selected the unlinked Zika NS2B-NS3pro complex for screening. However as most natural products are largely insoluble in aqueous buffers, we have assessed effects of DMSO and glycerol on the conformations (Fig 1E and 1F) as well as on catalytic parameters (Table 1). […]
property.name: Ki (µM)

[[record]]
smiles_input = "O=c1cc(-c2ccc(O)cc2)oc2cc(O)cc(O)c12"
property_name = "Ki"
unit_spec = "µM"
recorded_value = 34

